pIC50: −log10 of the molar value.
pIC50 tested on PDGFRA (PDGFRα) (Homo sapiens, UniProt P16234): recorded values
Sequence (P16234 24-1089): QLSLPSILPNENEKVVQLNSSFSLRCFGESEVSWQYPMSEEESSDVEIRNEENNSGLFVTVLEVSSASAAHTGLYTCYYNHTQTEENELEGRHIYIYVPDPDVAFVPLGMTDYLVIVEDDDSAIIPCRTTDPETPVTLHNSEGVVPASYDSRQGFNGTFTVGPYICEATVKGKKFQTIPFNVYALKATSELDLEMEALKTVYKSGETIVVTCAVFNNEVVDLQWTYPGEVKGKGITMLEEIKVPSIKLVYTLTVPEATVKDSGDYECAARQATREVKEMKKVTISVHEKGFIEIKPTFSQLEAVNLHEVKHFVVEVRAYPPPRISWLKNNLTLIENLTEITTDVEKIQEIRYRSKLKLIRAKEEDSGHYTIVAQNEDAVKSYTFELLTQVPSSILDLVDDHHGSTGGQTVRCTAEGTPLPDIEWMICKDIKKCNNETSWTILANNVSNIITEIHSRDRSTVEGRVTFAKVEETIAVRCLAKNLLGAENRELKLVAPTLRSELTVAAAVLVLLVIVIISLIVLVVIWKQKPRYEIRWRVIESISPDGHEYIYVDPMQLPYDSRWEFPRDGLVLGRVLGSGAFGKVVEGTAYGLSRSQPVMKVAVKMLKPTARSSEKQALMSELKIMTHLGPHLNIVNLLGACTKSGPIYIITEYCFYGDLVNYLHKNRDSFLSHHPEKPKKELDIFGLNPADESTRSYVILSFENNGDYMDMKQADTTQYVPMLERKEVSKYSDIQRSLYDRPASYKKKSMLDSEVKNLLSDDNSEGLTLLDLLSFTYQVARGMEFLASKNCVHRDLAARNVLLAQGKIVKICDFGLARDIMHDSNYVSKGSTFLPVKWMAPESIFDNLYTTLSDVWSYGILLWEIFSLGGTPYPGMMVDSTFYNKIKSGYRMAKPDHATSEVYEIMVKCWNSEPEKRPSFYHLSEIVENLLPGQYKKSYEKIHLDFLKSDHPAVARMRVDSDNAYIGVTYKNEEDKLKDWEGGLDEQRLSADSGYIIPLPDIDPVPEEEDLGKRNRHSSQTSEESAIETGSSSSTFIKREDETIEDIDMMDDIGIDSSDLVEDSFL

smiles notation: Cc1ccc(Cn2cc(COc3ccc(NC4=CC(=O)c5ccccc5C4=O)cc3)nn2)cc1
pIC50: 6.66

smiles notation: O=C1C=C(Nc2ccc(OCc3cn(Cc4ccccc4)nn3)cc2)C(=O)c2ccccc21
pIC50: 6.20

---

tested on: KDR (VEGFR2) (Homo sapiens, UniProt P35968)
Sequence (P35968 20-1356): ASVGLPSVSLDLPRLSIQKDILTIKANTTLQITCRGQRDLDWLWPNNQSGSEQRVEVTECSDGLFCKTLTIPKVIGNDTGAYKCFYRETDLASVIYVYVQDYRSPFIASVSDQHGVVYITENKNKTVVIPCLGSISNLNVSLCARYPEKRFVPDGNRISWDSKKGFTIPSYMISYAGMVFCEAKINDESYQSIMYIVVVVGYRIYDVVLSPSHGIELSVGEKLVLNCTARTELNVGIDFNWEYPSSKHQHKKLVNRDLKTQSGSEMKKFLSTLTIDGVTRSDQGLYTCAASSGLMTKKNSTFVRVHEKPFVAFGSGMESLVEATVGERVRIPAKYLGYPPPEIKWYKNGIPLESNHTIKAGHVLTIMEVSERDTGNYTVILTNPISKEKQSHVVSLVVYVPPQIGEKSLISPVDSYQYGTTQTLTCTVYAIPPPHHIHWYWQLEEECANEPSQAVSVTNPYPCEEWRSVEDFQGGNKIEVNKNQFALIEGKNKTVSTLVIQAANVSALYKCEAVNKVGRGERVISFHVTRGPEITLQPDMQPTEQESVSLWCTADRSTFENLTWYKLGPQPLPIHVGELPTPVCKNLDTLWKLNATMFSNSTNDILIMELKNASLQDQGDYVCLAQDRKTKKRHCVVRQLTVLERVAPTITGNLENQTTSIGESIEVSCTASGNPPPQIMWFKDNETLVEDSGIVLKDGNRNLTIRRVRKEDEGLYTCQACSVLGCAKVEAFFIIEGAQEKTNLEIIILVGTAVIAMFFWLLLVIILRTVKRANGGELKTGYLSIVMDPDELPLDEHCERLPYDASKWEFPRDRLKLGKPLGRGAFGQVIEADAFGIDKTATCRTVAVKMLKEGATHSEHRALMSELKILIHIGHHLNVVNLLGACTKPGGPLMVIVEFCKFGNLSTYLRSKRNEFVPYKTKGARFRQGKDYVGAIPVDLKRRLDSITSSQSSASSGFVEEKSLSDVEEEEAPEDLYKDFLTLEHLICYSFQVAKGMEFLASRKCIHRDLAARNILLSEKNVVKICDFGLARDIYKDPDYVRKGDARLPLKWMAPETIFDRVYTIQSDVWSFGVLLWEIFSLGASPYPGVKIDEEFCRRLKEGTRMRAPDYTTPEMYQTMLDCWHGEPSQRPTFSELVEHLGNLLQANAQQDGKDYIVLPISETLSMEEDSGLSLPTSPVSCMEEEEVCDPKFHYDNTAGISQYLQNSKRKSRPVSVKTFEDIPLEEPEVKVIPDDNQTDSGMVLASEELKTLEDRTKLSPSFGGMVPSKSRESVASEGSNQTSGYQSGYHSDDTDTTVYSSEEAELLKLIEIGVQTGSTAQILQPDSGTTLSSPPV
assay: Radiometric kinase assay
Type: biochemical
details: read-out: Kinase inhibition (%) KDR (VEGFR2)
Overview of reported inhibition at 10 µM across a group of compounds:
property measured: inhibition at 10 µM (%)

smiles notation: CC(C)c1ccc(Cn2cc(COc3ccc(NC4=CC(=O)c5ccccc5C4=O)cc3)nn2)cc1
property measured: inhibition at 10 µM
measure unit: %
recorded value: -10

smiles notation: O=C1C=C(Nc2ccc(OCc3cn(Cc4ccccc4)nn3)cc2)C(=O)c2ccccc21
property measured: inhibition at 10 µM
measure unit: %
recorded value: 20

smiles notation: O=C1C=C(Nc2ccc(OCc3cn(Cc4ccc(Cl)c(Cl)c4)nn3)cc2)C(=O)c2ccccc21
property measured: inhibition at 10 µM
measure unit: %
recorded value: -9

smiles notation: Cc1ccc(Cn2cc(COc3ccc(NC4=CC(=O)c5ccccc5C4=O)cc3)nn2)cc1
property measured: inhibition at 10 µM
measure unit: %
recorded value: 28

smiles notation: O=C1C=C(Nc2ccc(OCc3cn(Cc4ccc(Br)cc4)nn3)cc2)C(=O)c2ccccc21
property measured: inhibition at 10 µM
measure unit: %
recorded value: -19
